Hello, the source for this data is patent USRE47302E1, in case you need it.

protocol summary: Solubility pH 7
measurement setup: pH 7, aqueous buffer
property: solubility (µg/mL)

Look over these answered cases.
>>> test_value("C[C@H](NC(=O)CN1CCOCC1)C(=O)N[C@@H](Cc1ccc(S(C)(=O)=O)cc1)C(=O)N[C@@H](CC1=CCCCC1)C(=O)[C@@]1(C)CO1")
7280
>>> test_value("C[C@@H](NC(=O)[C@H]1CC[C@H](O)CC1)C(=O)N[C@@H](Cc1ccc2[nH]cnc2c1)C(=O)N[C@@H](CC1CCCC1)C(=O)[C@@]1(C)CO1")
5690
>>> test_value("COc1ccc(C[C@H](NC(=O)[C@H](C)NC(=O)CN2CCOCC2)C(=O)N[C@@H](CC2CCCC2)C(=O)[C@H]2CO2)cc1OC")
4300
>>> test_value("C[C@H](NC(=O)CN1CCOCC1)C(=O)N[C@@H](Cc1ccc(S(C)(=O)=O)cc1)C(=O)N[C@@H](CC1CCCC1)C(=O)[C@@]1(C)CO1")
5750
>>> test_value("COc1ccc(C[C@H](NC(=O)[C@H](C)NC(=O)NN2CCOCC2)C(=O)N[C@@H](Cc2ccccc2)C(=O)[C@@]2(C)CO2)cc1")
1190

A = COc1ccc(C[C@H](NC(=O)[C@H](C)NC(=O)CN2CCOCC2)C(=O)N[C@@H](CN2CCCC2=O)C(=O)[C@@]2(C)CO2)cc1
B = COc1ccc(C[C@H](NC(=O)[C@H](C)NC(=O)CN2CCOCC2)C(=O)N[C@@H](Cc2cccc(F)c2)C(=O)[C@@]2(C)CO2)cc1
C = COc1ccc(C[C@H](NC(=O)[C@H](C)NC(=O)CN2CCOCC2)C(=O)N[C@@H](Cc2ccc(C)cc2)C(=O)[C@@]2(C)CO2)cc1
D = COc1ccc(C[C@H](NC(=O)[C@@H](C)NC(=O)[C@H]2CC[C@H](O)CC2)C(=O)N[C@@H](CC2CC(F)(F)C2)C(=O)[C@@]2(C)CO2)cc1
E = COc1ccc(C[C@H](NC(=O)[C@@H](C)NC(=O)C2CCCC2)C(=O)N[C@@H](CC2CCCC2)C(=O)[C@@]2(C)CO2)cc1
Arrange by solubility, high to low. Write the labels in rank order as requested.
A, D, B, C, E
